target: Neu5Gc(a2-8)Neu5Gc(a2-3)Gal(b1-4)GlcNAc(b1-3)Gal(b1-4)GlcNAc; assay: glycan array binding signal (z-score within array); higher = stronger binding; details: glycan notation: IUPAC condensed, linker removed
Only a selection was taken, and the strongest signals are over-represented in it overall.
parameter: glycan array binding signal (z-score)

Recorded glycan array binding signal (z-score) of Clone730PsrP (Streptococcus pneumoniae) (protein) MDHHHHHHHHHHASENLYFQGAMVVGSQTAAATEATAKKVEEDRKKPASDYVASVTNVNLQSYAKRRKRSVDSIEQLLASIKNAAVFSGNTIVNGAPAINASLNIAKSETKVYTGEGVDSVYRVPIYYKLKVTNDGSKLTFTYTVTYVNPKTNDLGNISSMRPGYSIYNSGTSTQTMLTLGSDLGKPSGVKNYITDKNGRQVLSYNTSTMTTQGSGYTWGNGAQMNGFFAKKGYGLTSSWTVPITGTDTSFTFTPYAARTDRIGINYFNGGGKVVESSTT , please.
-0.565

Recorded glycan array binding signal (z-score) of CBP21 (Serratia marcescens), O83009 (protein) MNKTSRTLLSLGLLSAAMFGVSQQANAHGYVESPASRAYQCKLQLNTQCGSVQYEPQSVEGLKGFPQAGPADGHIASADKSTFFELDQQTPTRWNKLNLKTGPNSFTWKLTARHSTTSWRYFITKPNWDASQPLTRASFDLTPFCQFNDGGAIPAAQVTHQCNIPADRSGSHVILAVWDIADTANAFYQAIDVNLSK , please.
0.62

Recorded glycan array binding signal (z-score) of Vd2LysM (Verticillium dahliae) (protein) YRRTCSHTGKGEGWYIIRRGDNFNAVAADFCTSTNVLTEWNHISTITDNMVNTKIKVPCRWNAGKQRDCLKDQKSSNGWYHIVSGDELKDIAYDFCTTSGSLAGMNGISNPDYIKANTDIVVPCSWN , please.
0.317

Recorded glycan array binding signal (z-score) of AidA (Burkholderia cenocepacia) (protein) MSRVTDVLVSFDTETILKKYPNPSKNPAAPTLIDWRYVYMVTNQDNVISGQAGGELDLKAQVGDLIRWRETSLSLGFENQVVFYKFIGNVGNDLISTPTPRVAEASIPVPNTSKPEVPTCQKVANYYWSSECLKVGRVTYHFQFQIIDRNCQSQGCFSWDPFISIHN , please.
-0.459
